biological target: KDM5A (Homo sapiens); construct: Full length KDM5A enzyme was expressed and purified inhouse; made in house; experiment: KDM5 enzyme assay, KDM5A HTRF (Example 463); format: biochemical
Consider the following molecules; for each one, report its pIC50.
Give bare numbers, as −log10 of the molar value.

> print(dat)
                                chem.smiles  measurement
1  C=C(C)c1c(-c2ccccc2)[nH]c2c(C#N)cnn2c1=O         7.60
2   CC(C)c1c(-c2cccnc2)[nH]c2c(C#N)cnn2c1=O         7.92
3  CC(C)c1c(-c2ccc(Cl)cc2)[nH]c2c(C#N)cnn2c1=O         7.68
4  COc1cc(-c2[nH]c3c(C#N)cnn3c(=O)c2C(C)C)ccn1         7.49
5  CC(C)c1c(-c2ccc(OC(F)(F)F)cc2)[nH]c2c(C#N)cnn2c1=O         7.43

I need pIC50 for every entry listed below, if you could help.
1. N#Cc1cnn2c(=O)c(Br)c(-c3ccccc3)[nH]c12
2. CC(C)c1c[nH]c2c(C#N)cnn2c1=O

// result
7.52
7.54

* * *

Please go through the items and note down their IC50.
molecular target: KDM5A (Homo sapiens, UniProt P29375); construct: Full length KDM5A enzyme was expressed and purified inhouse; made in house; test: KDM5 enzyme assay, KDM5A HTRF (Example 463); type: biochemical; details: compounds of Examples 1-432; read-out: Example 463 Assay KDM5A HTRF IC50
Sequence (P29375 whole entry): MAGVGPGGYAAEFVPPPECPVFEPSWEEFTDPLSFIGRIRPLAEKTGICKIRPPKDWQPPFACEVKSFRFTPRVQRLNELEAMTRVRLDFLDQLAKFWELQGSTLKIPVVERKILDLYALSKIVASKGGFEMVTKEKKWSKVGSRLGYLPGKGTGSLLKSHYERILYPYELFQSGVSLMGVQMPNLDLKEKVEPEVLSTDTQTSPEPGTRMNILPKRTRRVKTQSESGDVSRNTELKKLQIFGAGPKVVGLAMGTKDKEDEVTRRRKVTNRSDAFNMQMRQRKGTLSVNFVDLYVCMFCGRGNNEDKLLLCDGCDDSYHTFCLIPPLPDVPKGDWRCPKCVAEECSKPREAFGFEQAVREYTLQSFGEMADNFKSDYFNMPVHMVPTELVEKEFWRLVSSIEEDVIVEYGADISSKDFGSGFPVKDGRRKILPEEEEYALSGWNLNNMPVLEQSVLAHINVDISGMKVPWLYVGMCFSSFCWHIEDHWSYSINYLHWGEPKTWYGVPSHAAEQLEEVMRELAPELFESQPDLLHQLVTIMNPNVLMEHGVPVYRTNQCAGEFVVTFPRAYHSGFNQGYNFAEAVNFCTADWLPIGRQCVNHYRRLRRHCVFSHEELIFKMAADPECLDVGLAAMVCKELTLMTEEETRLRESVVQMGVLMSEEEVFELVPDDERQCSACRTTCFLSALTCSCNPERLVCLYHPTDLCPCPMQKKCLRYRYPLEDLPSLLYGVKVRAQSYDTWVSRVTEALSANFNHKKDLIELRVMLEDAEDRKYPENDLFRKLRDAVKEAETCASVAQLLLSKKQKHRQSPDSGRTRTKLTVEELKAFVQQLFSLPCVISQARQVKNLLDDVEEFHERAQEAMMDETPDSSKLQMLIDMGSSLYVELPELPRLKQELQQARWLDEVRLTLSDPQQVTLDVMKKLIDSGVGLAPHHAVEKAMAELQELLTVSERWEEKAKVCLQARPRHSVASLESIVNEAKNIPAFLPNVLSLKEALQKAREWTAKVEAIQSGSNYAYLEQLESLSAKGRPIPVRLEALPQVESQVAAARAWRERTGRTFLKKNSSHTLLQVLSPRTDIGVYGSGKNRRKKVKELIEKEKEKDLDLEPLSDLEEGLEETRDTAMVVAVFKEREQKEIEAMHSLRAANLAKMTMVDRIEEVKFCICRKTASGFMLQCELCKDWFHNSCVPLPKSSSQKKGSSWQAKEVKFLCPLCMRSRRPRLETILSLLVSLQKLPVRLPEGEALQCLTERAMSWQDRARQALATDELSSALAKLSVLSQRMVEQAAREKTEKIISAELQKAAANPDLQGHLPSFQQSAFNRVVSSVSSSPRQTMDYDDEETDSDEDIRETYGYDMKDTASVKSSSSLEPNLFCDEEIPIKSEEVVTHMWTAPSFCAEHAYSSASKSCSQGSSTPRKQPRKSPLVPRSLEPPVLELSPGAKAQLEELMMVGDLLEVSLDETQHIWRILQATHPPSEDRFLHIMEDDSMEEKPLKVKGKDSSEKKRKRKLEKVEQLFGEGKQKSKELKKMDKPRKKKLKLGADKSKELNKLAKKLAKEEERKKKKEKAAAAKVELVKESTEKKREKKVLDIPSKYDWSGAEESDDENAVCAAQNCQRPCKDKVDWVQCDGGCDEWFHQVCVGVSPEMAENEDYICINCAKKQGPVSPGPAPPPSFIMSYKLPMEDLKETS
One number for each entry, in nM.

The following molecules have reported results that may help.
> print(dat)
                                   molecule  measurement
1  C#CCc1c(-c2ccccc2)[nH]c2c(C#N)cnn2c1=O [Example 37]           24
2  CC(C)c1c(-c2cnn(CCNc3ccccc3)c2)[nH]c2c(C#N)cnn2c1=O [Compound 366]           18
3  CCc1c(-c2ccco2)n(C)c2c(C#N)cnn2c1=O [Example 177]           38

Hey, quick one: what's IC50 for each of these?
1. CC(C)c1c(-c2cnn(C(CC#N)c3ccccc3)c2)[nH]c2c(C#N)cnn2c1=O (stereo not drawn) [Example 337]
2. CC(C)c1c(-c2cnn(Cc3cccc(Cl)c3)c2)[nH]c2c(C#N)cnn2c1=O [Example 157]
3. C=CCc1c(-c2cnn(C(C)C)c2)[nH]c2c(C#N)cnn2c1=O [Compound 425]
4. CC(C)c1c(-c2cc(F)cc(C(F)(F)F)c2)[nH]c2c(C#N)cnn2c1=O [Example 326]
5. CC(C)c1c(/C=C/c2ccccc2)[nH]c2c(C#N)cnn2c1=O [Example 131]
6. CC(C)c1c(-c2cc(Cl)cc(C#N)c2)[nH]c2c(C#N)cnn2c1=O [Compound 347]

// result
[25, 7, 16, 14, 18, 24]

* * *

So I've got a bunch of compounds here, and I need their pIC50 values.
biological target: KDM5A (Homo sapiens, UniProt P29375); construct: Full length KDM5A enzyme was expressed and purified inhouse; made in house; assay: KDM5 enzyme assay, KDM5A HTRF (Example 463); format: biochemical; settings: compounds of Examples 1-432; read-out: Example 463 Assay KDM5A HTRF IC50
Give bare numbers, as −log10 of the molar value.

Worked set:
> print(dat)
                                   compound  quantity.name  measurement
1  CC(C)c1c(-c2cccc(N3CCC(c4ccccc4)C3=O)c2)[nH]c2c(C#N)cnn2c1=O (centres unmarked) [Compound 424]          pIC50         8.10
2  COC(=O)c1c(-c2ccccc2)[nH]c2c(C#N)cnn2c1=O [Example 112]          pIC50         6.48
3  CC(C)c1c(-c2cnn(C3CCSCC3)c2)[nH]c2c(C#N)cnn2c1=O [Example 17]          pIC50         7.39
4  CC(CO)c1c(-c2ccccc2)[nH]c2c(C#N)cnn2c1=O (centres unmarked) [Example 249]          pIC50         7.52
5  CC(C)c1c(-c2ccc3c(c2)OCO3)[nH]c2c(C#N)cnn2c1=O [Example 151]          pIC50         7.77
6  CC(C)c1c(-c2cnn(Cc3ccccc3Oc3ccccc3)c2)[nH]c2c(C#N)cnn2c1=O [Example 122]          pIC50         7.89
7  CCc1c(C(=O)NCC(=O)c2ccccc2)[nH]c2c(C#N)cnn2c1=O [Example 31]          pIC50         7.60
8  CC(C)c1c(-c2cccc(C(F)(F)F)c2)n(C)c2c(C#N)cnn2c1=O [Example 164]          pIC50         6.82

Provide pIC50 for all items below, preserving their order.
1. CCc1c(-c2ccco2)[nH]c2c(C#N)cnn2c1=O [Example 57]
2. COc1cc(-c2[nH]c3c(C#N)cnn3c(=O)c2C(C)C)ccc1C(F)(F)F [Example 255]

// result
1. 8.24
2. 7.46

Report pIC50 for every entry below.
1. CCn1cc(-c2[nH]c3c(C#N)cnn3c(=O)c2C(C)C)cn1 [Example 55]
2. C=CS(=O)(=O)NCCn1cc(-c2[nH]c3c(C#N)cnn3c(=O)c2C(C)C)cn1 [Example 321]

// result
1: 7.96; 2: 7.64

Could you tell me pIC50 for each of these compounds? They are listed below.
1. CC(C)c1c(-c2cccc(NS(C)(=O)=O)c2)[nH]c2c(C#N)cnn2c1=O [Compound 375]
2. Cc1c(-c2[nH]c3c(C#N)cnn3c(=O)c2C(C)C)cnn1C(C)C [Compound 403]

// result
[7.72, 7.24]

Okay, here is my list. What is pIC50 for each of these?
1. CC(C)c1c(-c2ccc(-c3ccccc3)nc2)[nH]c2c(C#N)cnn2c1=O [Example 283]
2. C=C(C)c1c(C(C)C)c(=O)n2ncc(C#N)c2n1C [Example 180]
3. COCC(C)(C)n1cc(-c2[nH]c3c(C#N)cnn3c(=O)c2C(C)C)cn1 [Compound 390]
4. CC(C)c1c(-c2cnn(CCN)c2)[nH]c2c(C#N)cnn2c1=O [Example 314]

// result
1: 7.43; 2: 7.21; 3: 7.26; 4: 8.28

# batch: return pIC50 for each of the 6 compounds below
1. Cc1nn(C(C)C)cc1-c1[nH]c2c(C#N)cnn2c(=O)c1C(C)C [Compound 402]
2. CC(C)c1c(-c2ccc(Cl)c(Cl)c2)[nH]c2c(C#N)cnn2c1=O [Example 138]
3. CC(C)c1c(-c2cnn(C3CCOC3)c2)[nH]c2c(C#N)cnn2c1=O (centres unmarked) [Example 280]
4. CC(C)c1c(-c2ccc(-c3ccccc3)cc2)[nH]c2c(C#N)cnn2c1=O [Example 263]
5. CC(C)c1c(-c2ccc(F)cc2)n(C)c2c(C#N)cnn2c1=O [Example 183]
6. Cc1nc(-c2ccccc2)sc1-c1[nH]c2c(C#N)cnn2c(=O)c1C(C)C [Example 278]

// result
1. 7.24
2. 7.82
3. 7.82
4. 7.55
5. 7.48
6. 7.12

Record pIC50 for all entries; do not skip any.
1. CC(C)c1c(-c2cccc(C#Cc3ccccc3)c2)[nH]c2c(C#N)cnn2c1=O [Compound 387]
2. CC(C)c1c(-c2ccc(OCc3ccccc3)nc2)[nH]c2c(C#N)cnn2c1=O [Example 334]
3. Cc1cncc(-c2[nH]c3c(C#N)cnn3c(=O)c2C(C)C)c1 [Example 62]
4. C=Cc1cccc(Cn2cc(-c3[nH]c4c(C#N)cnn4c(=O)c3C(C)C)cn2)n1 [Example 333]
5. CC(C)c1c(-c2ccc(-c3ccccc3)o2)n(C)c2c(C#N)cnn2c1=O [Example 185]
6. CC(C)c1c(-c2cnn(C(F)F)c2)[nH]c2c(C#N)cnn2c1=O [Example 160]

// result
1. 6.89
2. 7.60
3. 7.92
4. 7.92
5. 7.70
6. 7.72

Return reported pIC50 values for all items listed beneath this line.
1. CC(C)c1c(-c2cccc(Nc3ccccc3)c2)[nH]c2c(C#N)cnn2c1=O [Compound 385]
2. CC(C)c1c(-c2cnn(CCc3ccccc3)c2)[nH]c2c(C#N)cnn2c1=O [Example 114]
3. Cc1ccc(-c2[nH]c3c(C#N)cnn3c(=O)c2C(C)C)cc1C(F)(F)F [Example 343]
4. COCC(C)n1cc(-c2[nH]c3c(C#N)cnn3c(=O)c2C(C)C)cn1 (centres unmarked) [Example 286]
5. CC(C)c1c(C2=CCNCC2)[nH]c2c(C#N)cnn2c1=O [Example 320]

// result
1. 7.68
2. 8.26
3. 7.44
4. 7.52
5. 7.70
